Target: T1, FcRL2, overexpressed on 3T3 cells (UniProt Q96LA5 20-508, limits assumed)
T1 construct: whole, on cells
T1 sequence (looked up): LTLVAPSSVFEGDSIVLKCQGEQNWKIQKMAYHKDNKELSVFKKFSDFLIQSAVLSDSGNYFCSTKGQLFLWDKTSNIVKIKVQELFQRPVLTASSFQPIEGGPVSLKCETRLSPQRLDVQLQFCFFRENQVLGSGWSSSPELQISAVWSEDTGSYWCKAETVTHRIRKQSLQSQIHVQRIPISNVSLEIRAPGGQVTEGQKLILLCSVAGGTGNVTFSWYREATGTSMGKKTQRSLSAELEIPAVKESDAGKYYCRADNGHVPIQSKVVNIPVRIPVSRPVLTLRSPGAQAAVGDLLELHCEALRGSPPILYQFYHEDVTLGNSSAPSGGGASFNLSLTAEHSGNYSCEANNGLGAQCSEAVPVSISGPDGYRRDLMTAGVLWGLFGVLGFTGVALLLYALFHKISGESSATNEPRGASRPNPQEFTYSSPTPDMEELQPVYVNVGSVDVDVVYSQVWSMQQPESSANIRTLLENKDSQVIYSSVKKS
Assay: phage clone on 3T3-FcRL2 cells
endpoint_label: binding result

ET200-034 (scFv, screened as phage clone; entry is VL-linker-VH-His tag-HA tag) scFv: QSVLTQPPSVSGAPGQRVTISCTGSTSNIGAGYDVHWYQQLPGTAPKLLINNNRNRPSGVPDRFSGSKSGTSATLGITGLQTGDEADYYCGTWDGSLTGAVFGGGTKLTVLGSRGGGGSGGGGSGGGGSLEMAEVQLVQSGAEVKKPGSSVKVSCKASGGTFSSYAISWVRQAPGQGLEWMGGIIPIFGTANYAQKFQGRVTITADESTSTAYMELSSLRSEDTAVYYCARGSALDHYDRWGQGTLVTVSSTSGQAGQHHHHHHGAYPYDVPDYAS : no binding
ET200-005 (scFv, screened as phage clone; entry is VL-linker-VH-His tag-HA tag) scFv: QPVLTQPPSVSVVPGKTARITCGGKNIGSKSVHWYQQKPGQAPVVVIHYDSDRPSGIPERFSGSNSGNTATLTISRVEAGDEADYYCQVWDSSSDHPYVFGTGTKVTVLGSRGGGGSGGGGSGGGGSLEMAQVQLVQSGAEVKKPGASVKVSCKASGYTFTNYGISWVRQAPGQGLEWMGWISAYNGNTNYAHKLQGRVTMTTDTSTSTANMELRSLRPDDTAVYYCARSYFGSHDYWGQGTLVTVSSTSGQAGQHHHHHHGAYPYDVPDYAS : no binding

Source: patent US20210388081A1
